# Organism: Mus musculus
# METHOD NOTES: Effective concentration required for in vitro evaluation of agonist activity on mouse vas deferens preparation
# Format: functional
VALUE TYPE: EC50 (nM)
Response body: numeric value in nM, unit text excluded.

Return reported EC50; argument: C[C@@H](NC(=O)[C@@H](N)Cc1ccc(O)cc1)C(=O)NCC(=O)N(C)[C@@H](Cc1ccccc1)C(=O)NCCO [DAMGO]
24.7

----------
# STUDY TARGET: Kappa-type opioid receptor (Cavia porcellus, UniProt P41144)
# Sequence (P41144 whole entry): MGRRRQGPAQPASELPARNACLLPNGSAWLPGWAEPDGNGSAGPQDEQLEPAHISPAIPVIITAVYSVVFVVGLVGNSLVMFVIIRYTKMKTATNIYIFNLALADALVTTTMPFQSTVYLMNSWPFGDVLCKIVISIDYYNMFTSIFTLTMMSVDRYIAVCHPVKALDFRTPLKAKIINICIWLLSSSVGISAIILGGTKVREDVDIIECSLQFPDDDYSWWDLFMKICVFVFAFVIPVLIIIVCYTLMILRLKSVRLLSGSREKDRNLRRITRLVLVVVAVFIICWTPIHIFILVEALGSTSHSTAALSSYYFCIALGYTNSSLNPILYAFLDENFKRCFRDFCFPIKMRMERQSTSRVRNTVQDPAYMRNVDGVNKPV
# METHOD NOTES: Binding affinity by its ability to displace [3H]-U-69,593 from kappa receptor in homogenates of guinea pig brain
# Type: tissue-based
Overview of reported Ki across a group of compounds:
Response body: numeric value in nM, unit text excluded.

COMPOUND | VALUE TYPE | ENDPOINT VALUE
COc1cccc2c1[C@]13CCN(CC4CC4)[C@H](C2)[C@]1(OC)CCC(=O)C3 [CYPRODIME BROMIDE] | Ki | 61.1
Br.COc1cccc2c1[C@]13CCN(CCc4ccccc4)C(C2)[C@]1(OC)CCC(=O)C3 | Ki | 690

Return reported Ki; argument: COc1cccc2c1[C@]13CCN(C)[C@H](C2)[C@]1(OC)CCC(=O)C3
1.5

----------
# Species: Cavia porcellus
# METHOD NOTES: Effective concentration of compound required for in vitro agonist potency in guinea-pig ileum myenteric plexus preparation (GPI)
# Format: functional
VALUE TYPE: EC50 (nM)
Response body: numeric value in nM, unit text excluded.

Return reported EC50; argument: Br.COc1cccc2c1[C@]13CCN(CCc4ccccc4)C(C2)[C@]1(OC)CCC(=O)C3
17.4

----------
# Species: Mus musculus
# METHOD NOTES: Effective concentration required for in Vitro evaluation of agonist activity on mouse vas deferens preparation
# Type: functional
VALUE TYPE: pEC50
pEC50 field: float, defined as -log10 of concentration (mol/L).

Return reported pEC50; argument: CC1(C)SSC(C)(C)[C@@H](NC(=O)[C@@H](N)Cc2ccc(O)cc2)C(=O)NCC(=O)N[C@@H](Cc2ccccc2)C(=O)N[C@H]1C(=O)O
8.55
